Value source: patent US8940900B2

Assayed system: purified human recombinant GK (Homo sapiens)
Sequence (P35557 1-465): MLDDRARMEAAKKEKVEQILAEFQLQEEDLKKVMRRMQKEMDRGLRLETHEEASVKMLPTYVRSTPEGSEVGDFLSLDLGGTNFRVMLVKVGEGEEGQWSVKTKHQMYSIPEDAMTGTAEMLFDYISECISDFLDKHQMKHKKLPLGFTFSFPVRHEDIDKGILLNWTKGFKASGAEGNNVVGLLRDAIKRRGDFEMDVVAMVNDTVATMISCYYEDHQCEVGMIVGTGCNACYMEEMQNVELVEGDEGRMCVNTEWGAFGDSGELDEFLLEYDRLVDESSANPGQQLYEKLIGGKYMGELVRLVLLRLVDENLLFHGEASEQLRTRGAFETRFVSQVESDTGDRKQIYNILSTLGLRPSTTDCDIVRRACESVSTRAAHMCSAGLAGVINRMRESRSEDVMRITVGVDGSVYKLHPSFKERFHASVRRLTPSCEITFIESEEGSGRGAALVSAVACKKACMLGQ
Protocol description: Glucokinase activity, coupled enzymatic assay (NADH absorbance at 340 nm)
Type: biochemical
Measurement parameters: 5 mM glucose; read-out: EC50 values for GK activation at 5 mM Glucose conc
Reported metric: EC50 (µM)

Below, 3 compounds whose answers are already recorded.
Compound	Numeric result
CC(Oc1ccc(F)cc1F)(C(=O)Nc1nc(CC(=O)O)c(Cl)s1)c1ccc(S(C)(=O)=O)cc1 (centres unmarked) [Example P1]	7
CCC(C)(Oc1ccc(F)cc1F)C(=O)Nc1ncc(Cl)s1 (centres unmarked)	7.1
CC(C)(Oc1ccc2c(c1)OCO2)C(=O)Nc1ncc(Cl)s1	2.2

A: Cc1cnc(NC(=O)C(C)(Oc2ccc(F)cc2F)c2ccc(S(C)(=O)=O)cc2)s1 (centres unmarked)
B: CC(C)(Oc1ccc(F)cc1F)C(=O)Nc1ncc(Cl)s1
Input line: When their EC50 values are compared, which is larger, A or B ? Identify your selection by its label.
Output line: A
(A: 5.4 µM, B: 1.8 µM)

a: CC(C)(Oc1ccc(F)cc1F)C(=O)Nc1nc(CC(=O)Nc2ccc(F)cc2)cs1
b: CC(Oc1ccc(F)cc1F)(C(=O)Nc1ncc(Cl)s1)c1ccc(S(=O)(=O)C2CC2)cc1 (centres unmarked)
Input line: When their EC50 values are compared, which is larger, a or b ? Identify your selection by its label.
Output line: a
(a: 4.5 µM, b: 1.8 µM)
